System: A549
assay_comment: NCI tumour cell line growth inhibition, 48 h
The source made the active and inactive calls. No stated cut-off is given here; in the data, active = GI50 up to about 1.1 µM and inactive = higher.
recorded_endpoint: GI50

Sample answers from the record:
INSERT INTO results (compound, test_target, measurement) VALUES
  ('N#C[BH2-][n+]1ccc(C(=O)NNCc2ccc(F)cc2)cc1', 'A549', '> 100 µM (inactive)'),
  ('COc1ccccc1NC(=O)C1=C(C)NC(C)=C(C(=O)Nc2ccccc2OC)C1C1=CC=COC1', 'A549', '18.5 µM (inactive)'),
  ('CC1(C)COC(c2ccc(C(F)(F)F)cc2C(O)c2ccc3ccccc3c2)=N1 (centres undefined)', 'A549', '99.5 µM (inactive)');

// below: GI50 requested for another compound
Record request: GI50 value, item CC1OC(OC2C(O[C@H]3CC[C@@H]4C(=CC[C@@H]5[C@@]4(C)C(=O)C[C@]4(C)[C@@H]([C@H](C)CC[C@@H](O)C(C)(C)O)CC[C@@]54C)C3(C)C)OC(CO)C(O)C2O)C(O)C(O)C1O (some centres undefined)
> 100 µM (inactive)

###

Documented GI50 across a set of molecules
System: KM-20L2
assay_comment: NCI tumour cell line growth inhibition, 48 h
Activity calls are given as the source filed them. Rule as the data show it: active = GI50 up to about 1.1 µM and inactive = higher.

Here is how some molecules turned out for GI50.
INSERT INTO results (molecule, recorded_endpoint, measurement) VALUES
  ('Cc1ccc(S(=O)(=O)OCC/C(=C\[Si](C)(C)C)c2ccccc2)cc1', 'GI50', '> 100 µM (inactive)'),
  ('O=C(NC1CC1)c1c(O)[nH]c(=S)[nH]c1=O', 'GI50', '> 100 µM (inactive)'),
  ('CCOC(=O)C1([Se]c2ccccc2)CCCC1=O (stereo unspecified)', 'GI50', '36.6 µM (inactive)'),
  ('NNC(=O)C1CCC(=O)N1S(=O)(=O)c1ccccc1 (stereo unspecified)', 'GI50', '> 100 µM (inactive)'),
  ('COc1ccc(/C=C2\CCC(CCN(C)C)(C3=CCCC3)C2=O)cc1 (stereo unspecified)', 'GI50', '14.1 µM (inactive)');

Read the next record carefully.
Given the entry CSC1=Nc2ccccc2N=C(c2ccc(Cl)cc2)C1 , report its measured GI50.
35.5 µM (inactive)

###

Measured GI50 accompanies every entry in the list below.
Test system: NCI-H460
assay_comment: NCI tumour cell line growth inhibition, 48 h
Structures can show the parent of a compound that is named as a salt. The source made the active and inactive calls. Rule as the data show it: active = GI50 up to about 1.1 µM and inactive = higher.

The cases that follow already have their GI50 on record.
INSERT INTO results (compound, recorded_endpoint, measurement) VALUES
  ('N[C@H](C(=O)O)[C@H]1ON=C(Cl)[C@@H]1O', 'GI50', '2.76 µM (inactive)'),
  ('C=C1CN2CCc3c([nH]c4ccccc34)C2CC1CC(=O)N(C)C (stereo unspecified)', 'GI50', '> 309 µM (inactive)'),
  ('NCCCCC(N)C(=O)NCCNc1ccc(NCCNC(=O)C(N)CCCCN)c2c1C(=O)c1ccccc1C2=O (stereo unspecified)', 'GI50', '9.06 µM (inactive)'),
  ('CC(=O)N(O)CCCCCNC(=O)CCC(=O)N(O)CCCCCNC(=O)CCC(=O)N(O)CCCCCN [DEFEROXAMINE HYDROCHLORIDE]', 'GI50', '6.53 µM (inactive)'),
  ('O=C1c2ccccc2C(=O)c2sc(Nc3ccc(Cl)cc3)nc21', 'GI50', '2.82 µM (inactive)');

Param item = COc1ccc(CCN2CCN(CCc3ccc(OC)cc3)CC2)cc1 ; retrieve measured GI50.
> 100 µM (inactive)

Quick check: GI50 of COc1ccc(OC)c2cc(C3(C)SCCCS3)ccc12 ?
78.3 µM (inactive)

Value lookup for GI50; key = O=C(N/N=C/c1cc(Cl)cc(Cl)c1O)c1ccccc1O
0.537 µM (active)

Query (compound): Cc1cc2c(cc1Cl)SC(NNc1ccc([N+](=O)[O-])cc1)=NS2(=O)=O ; field requested: GI50
> 10 µM (inactive)

Can you look up the measured GI50 of COc1cc2c[n+](C)c3c4cc(OC)c(OC(C)C)cc4ccc3c2cc1OC for me?
75.3 µM (inactive)

Quick one: GI50 for O=C1C=CC(=O)c2ccc(=O)ccc21 ?
21.2 µM (inactive)

###

Tested on: HCT-15
recorded_endpoint: GI50 (µM)
Number in µM, nothing else.

INSERT INTO measurements (molecule, test_target, measurement) VALUES
  ('O=C(Oc1cccc2cccnc12)c1cc2cc(CCl)ccc2oc1=O', 'HCT-15', 2.77),
  ('O=c1[nH]nc(Nc2ccc(Cl)cc2)c2nnn(C3CCCCC3)c12', 'HCT-15', 72.8),
  ('CS(=O)(=O)Nc1ccc(NCc2c[nH]c3ccc4ncccc4c23)cc1', 'HCT-15', 27.2);

Reported GI50 for O=C1/C(=C/c2ccc(Br)s2)NC(=S)N1CN1CCOCC1 : what is it?
30.2

What value of measured GI50 is listed for C=C1C(=O)C23CC1CCC2C12CO[C@@H]4OCC(C)(CC[C@@H]1OC3=O)C42 (some centres undefined) ?
2.9

###

System: MDA-MB-231
assay_comment: NCI tumour cell line growth inhibition, 48 h
Active and inactive are the calls of the source. Cut-off read from the data, not from the text of the source: active = GI50 up to about 1.1 µM and inactive = higher.
Each entry below lists one item and its recorded GI50 value.

INSERT INTO assay_data (compound, measurement) VALUES
  ('Clc1ccc2c(SCC3CO3)c3ccccc3nc2c1 (configuration not stated)', '2.33 µM (inactive)'),
  ('COC(=O)C1=COC(C)C2C[n+]3ccc4c([nH]c5ccccc54)c3CC12 (configuration not stated)', '> 100 µM (inactive)'),
  ('C[C@H]1CCC2C(OC(=O)[C@@H]2CN(C)C)[C@]2(C)C(=O)C=CC12O (some centres not stated)', '9.55 µM (inactive)'),
  ('NC(=O)CC(N)C(N)=O (configuration not stated)', '> 100 µM (inactive)'),
  ('O=c1[nH]nc(NCc2ccccc2)c2nnn(Cc3ccccc3)c12', '> 100 µM (inactive)');

Query: GI50; subject: CN/C(N)=N/N=C1/C(=O)Nc2ccccc21
> 100 µM (inactive)

Query (compound): COc1cc(CCCOC(=O)/C=C/c2ccc(O)c(O)c2)cc(O)c1O ; field requested: GI50
28.8 µM (inactive)

GI50 lookup needed for O=C(Oc1cccc2cccnc12)c1cc2cc(CCl)ccc2oc1=O , thanks.
27.1 µM (inactive)

Fill blank: measured GI50 of the compound O=C(CC(C(=O)c1cccs1)c1ccsc1)c1ccccc1 (configuration not stated) is ____.
17.5 µM (inactive)

Would you mind telling me what GI50 value was observed for CSc1nc(C)cc(Nc2ccc(O)c(CN3CCOCC3)c2)n1 ?
> 100 µM (inactive)

Which GI50 reading was recorded for the compound O=C1NC2c3c(I)sc(I)c3C(=O)C2O1 (configuration not stated) ?
4.49 µM (inactive)

Can you share its GI50? I mean this compound: Cc1nc(Cl)c(CBr)c(Cl)n1
1.95 µM (inactive)

###

Test system: SF-539
assay_comment: NCI tumour cell line growth inhibition, 48 h
The source made the active and inactive calls. Cut-off read from the data, not from the text of the source: active = GI50 up to about 1.1 µM and inactive = higher.
A correct response names exactly one class from active, inactive

These solved cases illustrate the format of a correct answer.
INSERT INTO assay_data (molecule, class_name) VALUES
  ('NNC(=O)C1CCC(=O)N1S(=O)(=O)c1ccccc1 (stereo not given)', 'inactive'),
  ('C/C(=N\NC(=S)N1CCC1)c1ccccn1', 'active'),
  ('O=C(CN1CCN(c2ccccn2)CC1)N1CCCn2c1nc1ccccc1c2=O', 'inactive');

Write down the call the test reported for this molecule. Item: CN(C)C(=S)/N=c1\ss/c(=N\C(=S)N(C)C)n1-c1ccc2c(c1)OCO2
inactive

# lookup: test call for O=C1/C(=C\c2ccc(Cl)cc2Cl)Sc2scc(-c3cccc([N+](=O)[O-])c3)[n+]21
inactive

Tell me the assay call for CCn1c2nc(=O)n(CCCCCCCCSC(c3ccccc3)(c3ccccc3)c3ccccc3)c(=O)c-2nc2ccccc21 please.
inactive

# outcome recorded in this test, key = Cc1ccc(CC2(OCCN(C)C)CCC(C(C)(C)C)CC2)cc1 (stereo not given)
inactive

Per the assay record, what outcome was assigned to O=C1NC2c3c(I)sc(I)c3C(=O)C2O1 (stereo not given) ?
inactive

Per the assay record, what outcome was assigned to CO[C@@H]1C=C[C@@]23c4cc5c(cc4CN(C[C@@H]2O)[C@H]3C1)OCO5 [(+)-HAEMANTHAMINE] ?
inactive

Assay result, entry CCc1c(OC(C)=O)c2c(NC3OCC(OC(C)=O)C(OC(C)=O)C3OC(C)=O)nc(SC)nc2oc1=O (stereo not given) — outcome?
inactive

###

Measured GI50 on HCT-15 follows.
Value expressed in µM; do not type the unit.

Worked cases, GI50 given:
INSERT INTO measurements (molecule, test_target, endpoint_unit, measurement) VALUES
  ('COc1ccc2c(c1)[C@@H]1c3cc(OC)c(OC)cc3CCN1CCC2', 'HCT-15', 'µM', 79.4),
  ('COc1cc(C2C(Cl)C(=O)N2NC(=O)c2ccc(NC(C)=O)cc2OC)ccc1O (configuration not stated)', 'HCT-15', 'µM', 19.5);

Kindly state the measured GI50 obtained for O=c1oc2c3ccc4ccccc4c3n(CCCN3CCCCC3)c2c2ccccc12 with HCT-15.
29.1
